Tested on: RXF 393 renal
EXPERIMENTAL_PROTOCOL: NCI tumour cell line growth inhibition, 48 h; in the data active means GI50 below about 0.43 µM; inactive means the rest
Would you mind answering with one of these outcomes? 1.0 = active, 0.0 = inactive

Please review the entries below; each comes with its answer.
CN1CCN(C(=S)SCN2C(=O)c3ccccc3S2(=O)=O)CC1    0.0
CCNC(=O)Oc1ccc(/C(=C(\C)c2ccc(Cl)cc2)c2ccc(OCCN3CCCCC3)cc2)cc1    0.0
COc1ccc(-n2nc(C)c3c2N(C)C2(C)C[C@@H]4C3(C)[C@@H]3CC4(C2)N(C)c2c(c(C)nn2-c2ccc(OC)cc2)[C@H]3C)cc1 (stereo not given in full)    0.0
O=C(NO)C(O)C(O)C(O)C(O)CO (stereo not given)    0.0
COc1ccc(N(Cc2cc(OC)c(OC)c(OC)c2)C2OC(=O)c3ccccc32)cc1 (stereo not given)    0.0

Please share the test call associated with CC[C@@]1(O)C(=O)OCc2c1cc1n(c2=O)Cc2cc3c(NC(C)=O)c(O)ccc3nc2-1 .
0.0
